# Test system: Vero E6 infected with SARS-CoV-2
# METHOD_SUMMARY: inhibition of SARS-CoV-2 cytopathic effect; higher = more antiviral protection, active = above 15
# CONDITION_LABEL: 8.33 nM; 48 h
READOUT_NAME: inhibition of SARS-CoV-2 cytopathic effect (%)

| MOLECULE | TARGET_SYSTEM | REPORTED_MEASUREMENT |
| --- | --- | --- |
| Cc1ccc(C(=O)N(CCCN)[C@@H](c2nc3cc(Cl)ccc3c(=O)n2Cc2ccccc2)C(C)C)cc1 [ispinesib] | Vero E6 infected with SARS-CoV-2 | -1.24 |
| O=C(O)CCc1c[nH]c2ccccc12 | Vero E6 infected with SARS-CoV-2 | -0.38 |
| CC(=O)Nc1ccc(OCC(O)CNC(C)C)cc1 (stereo not given) [practolol] | Vero E6 infected with SARS-CoV-2 | 0.3 |
| C[C@](N)(Cc1ccc(O)cc1)C(=O)O [metirosine] | Vero E6 infected with SARS-CoV-2 | 2.13 |
| CC(C(=O)O)c1ccc(C(=O)c2cccs2)cc1 (stereo not given) [suprofen] | Vero E6 infected with SARS-CoV-2 | 0.24 |

* * *

# Tested on: Vero E6 infected with SARS-CoV-2
# METHOD_SUMMARY: inhibition of SARS-CoV-2 cytopathic effect; higher = more antiviral protection, active = above 15
# CONDITION_LABEL: 10000 nM; 48 h
READOUT_NAME: inhibition of SARS-CoV-2 cytopathic effect

| CHEMICAL_SMILES | TARGET_SYSTEM | REPORTED_MEASUREMENT |
| --- | --- | --- |
| CCCCc1nc(Cl)c(CO)n1Cc1ccc(-c2ccccc2-c2nnn[nH]2)cc1 | Vero E6 infected with SARS-CoV-2 | -1.4% (inactive) |
| C[C@@H](O)[C@H]1C(=O)N2C(C(=O)O)=C(S[C@@H]3CN[C@H](CNS(N)(=O)=O)C3)[C@H](C)[C@H]12 | Vero E6 infected with SARS-CoV-2 | 0.46% (inactive) |
| Fc1ccc(CNc2ncnc3ccc(F)cc23)cc1 | Vero E6 infected with SARS-CoV-2 | -1.95% (inactive) |
| O=C(Nc1ccc(C(O)(C(F)(F)F)C(F)(F)F)cc1)c1ccc(C(F)(F)F)cc1 | Vero E6 infected with SARS-CoV-2 | 1.6% (inactive) |

* * *

# Tested on: Vero E6 infected with SARS-CoV-2
# METHOD_SUMMARY: inhibition of SARS-CoV-2 cytopathic effect; higher = more antiviral protection, active = above 15
# CONDITION_LABEL: 833.33 nM; 48 h
Recorded inhibition of SARS-CoV-2 cytopathic effect for the following compounds
READOUT_NAME: inhibition of SARS-CoV-2 cytopathic effect (%)

| COMPOUND | REPORTED_MEASUREMENT |
| --- | --- |
| COc1ccc(-c2cc3nccn3c(Nc3ncccc3C(N)=O)n2)cc1OC | -2.69 |
| c1nc2c(NC3CCCCC3)nc(Nc3ccc(N4CCOCC4)cc3)nc2[nH]1 [reversine] | -0.29 |
| CCS(=O)(=O)N1CCC[C@@H]2CN3CCc4cc(OC)ccc4[C@@H]3C[C@@H]21 | 5.17 |
| CC(C)Oc1ccc(-c2nc(-c3cccc4c3CC[C@H]4NCCC(=O)O)no2)cc1C#N | 2.4 |
| CC(C)N(CCCCOCC(=O)NS(C)(=O)=O)c1cnc(-c2ccccc2)c(-c2ccccc2)n1 [selexipag] | -0.43 |
| CN(C)CCCC(=O)Nc1ccc(C(=O)Nc2cccc(Nc3ncc(Cl)c(-c4c[nH]c5ccccc45)n3)c2)cc1 | -0.35 |
| CCn1c(-c2nonc2N)nc2cncc(CNC3CCNCC3)c21 | -2.49 |
| O=C(/C=C\n1cnc(-c2cc(C(F)(F)F)cc(C(F)(F)F)c2)n1)NNc1cnccn1 [selinexor] | -8.61 |
| CCC(=O)[C@@]1(C)[C@H](C)C[C@H]2[C@@H]3CCC4=CC(=O)C=C[C@]4(C)[C@H]3[C@@H](O)C[C@@]21C [rimexolone] | 0.22 |
| C/C(=N\NC(=O)[C@@H]1C(=O)NC[C@H]1c1ccccc1)c1cccc(Br)c1 | -2.01 |
| O=C(OCCO)c1ccccc1O [2-hydroxyethyl-salicylate] | 0.15 |
| COc1cc2c(CCNC(C)=O)c[nH]c2cc1Cl [6-chloromelatonin] | 4.57 |
| OCC(Br)(Br)Br [tribromoethanol] | 4.01 |
| O=C(O)CCCc1ccc(N(CCCl)CCCl)cc1 [chlorambucil] | -1.67 |
| CCCC(O)C(CC)CO (stereo unspecified) [2-ethyl-1,3-hexanediol] | 0.52 |
| NC(CO)C(=O)NNCc1ccc(O)c(O)c1O (stereo unspecified) [benserazide] | -3.13 |
| Cc1nc2ccc(NC(=O)Nc3ccnc4cccnc34)cc2o1 | -0.56 |
| CC(C)OC(=O)OCOP(=O)(CO[C@H](C)Cn1cnc2c(N)ncnc21)OCOC(=O)OC(C)C [tenofovir-disoproxil] | -4 |
| O[C@@](Cc1nc(CC2(C(F)(F)F)CC2)c[nH]1)(c1ccc(-n2cccn2)cc1)C(F)(F)F | -0.43 |
| O=C(Nc1ccccc1)c1cc([N+](=O)[O-])ccc1Cl | -0.67 |
| N#CCNC(=O)c1ccc(-c2ccnc(Nc3ccc(N4CCOCC4)cc3)n2)cc1 | -4.04 |
| C[C@@H](N)c1ccc(C(=O)Nc2ccnc3[nH]ccc23)cc1 | -5.51 |
| CCOC(=O)C(=O)Nc1cccc(OC)c1C(N)=O | 2.83 |
| CCN[C@H]1C[C@H](C)S(=O)(=O)c2sc(S(N)(=O)=O)cc21 [dorzolamide] | -1.92 |
| OC(c1ccccc1)(c1ccccc1)C1CCNCC1 [azacyclonol] | -0.09 |
| CCNCCS(=O)(=O)NC[C@@]1(c2ccccc2)SC(NC(=O)C(C)(C)C)=NN1C(=O)C(C)(C)C [litronesib] | 0.96 |
| Cn1cc(C(=O)OCC2CCN(CCNS(C)(=O)=O)CC2)c2ccccc21 | 6.93 |
| COc1cccc(OCCCN)c1-c1cc(Nc2cnc(C#N)cn2)n[nH]1 | -4.06 |
| O=c1[nH]c2ccccc2n1CCCN1CCN(C(c2ccccc2)c2ccccc2)CC1 [oxatomide] | 1.64 |
| O=C1NC(=O)c2cc(Nc3ccc(F)cc3)c(Nc3ccc(F)cc3)cc21 | 0.4 |
| CC(C)NCC(O)COc1ccc(COCCOC(C)C)cc1 (stereo unspecified) [bisoprolol] | -3.57 |
| CCCCC1(COC(=O)CCC(=O)O)C(=O)N(c2ccccc2)N(c2ccccc2)C1=O [suxibuzone] | -3.64 |
| N#Cc1cc(CN2CCC(Nc3ncnc4sc(Cl)cc34)CC2)ccc1F | 1.59 |
| Cn1nc(-c2cccc(F)c2)n(C)c1=S [suritozole] | 1.52 |
| CCCCCOc1ccc(-c2cc(-c3ccc(C(=O)N[C@H]4C[C@@H](O)[C@@H](O)NC(=O)[C@@H]5[C@@H](O)[C@@H](C)CN5C(=O)[C@H]([C@H](O)CC(N)=O)NC(=O)[C@H]([C@H](O)[C@@H](O)c5ccc(O)c(OS(=O)(=O)O)c5)NC(=O)[C@@H]5C[C@@H](O)CN5C(=O)[C@H]([C@@H](C)O)NC4=O)cc3)no2)cc1 [micafungin] | -3.13 |
| Cc1c(NC(=O)c2cccnc2)c(=O)n(-c2ccccc2)n1C [nifenazone] | -1.46 |

* * *

# Tested on: Vero E6 infected with SARS-CoV-2
# METHOD_SUMMARY: morphology score (similarity to uninfected cells); higher = more like uninfected cells
# CONDITION_LABEL: 24 h
Would you please tag the item true when its morphology score is -0.05 or above, and false when it is below?

| COMPOUND | TARGET_SYSTEM | ASSIGNED_CATEGORY |
| --- | --- | --- |
| COc1ccccc1OCC(O)CNC(C)C (centres undefined) [moprolol] (10 µM) | Vero E6 infected with SARS-CoV-2 | true |
| CN1CCN(c2ccc(/C=C(\C#N)c3ccccc3Br)cc2)CC1 (10 µM) | Vero E6 infected with SARS-CoV-2 | false |
| CCS(=O)(=O)N(C)[C@H]1c2cc(C#N)ccc2OC(C)(C)[C@@H]1O [chromanol-293B-(-)-[3R,4S]] (10 µM) | Vero E6 infected with SARS-CoV-2 | true |
| CO[C@@]1(NC(=O)CSC[C@@H](N)C(=O)O)C(=O)N2C(C(=O)O)=C(CSc3nnnn3C)CS[C@@H]21 [cefminox] (10 µM) | Vero E6 infected with SARS-CoV-2 | true |
| CCOC(=O)c1c(O)nc2cccc3c2c1-c1ccccc1C3=O (10 µM) | Vero E6 infected with SARS-CoV-2 | false |
| C[C@@H]1[C@H](O)[C@@H](C)/C=C/C=C/C=C/C=C/C=C/C=C/C=C/[C@H](O[C@@H]2O[C@H](C)[C@@H](O)[C@H](N)[C@@H]2O)C[C@@H]2O[C@](O)(C[C@@H](O)C[C@@H](O)[C@H](O)CC[C@@H](O)C[C@@H](O)CC(=O)O[C@H]1C)C[C@H](O)[C@H]2C(=O)O [amphotericin-b] (10 µM) | Vero E6 infected with SARS-CoV-2 | true |
| O=C(NC(Cc1cc(=O)[nH]c2ccccc12)C(=O)O)c1ccc(Cl)cc1 (centres undefined) [rebamipide] (10 µM) | Vero E6 infected with SARS-CoV-2 | true |
| Cc1ccc(NC(=O)CCCCCC(=O)Nc2ccccc2N)cc1 (0.833333 µM) | Vero E6 infected with SARS-CoV-2 | false |
| C[C@]12C=CC(=O)C=C1CC[C@@H]1[C@@H]2C(=O)C[C@@]2(C)[C@H]1CC[C@]2(O)C(=O)CO [prednisone] (10 µM) | Vero E6 infected with SARS-CoV-2 | false |
| Cn1cc(-c2ccc(F)c(C(F)(F)F)c2)nc1C1CCN(c2ncnc3[nH]ncc23)CC1 (10 µM) | Vero E6 infected with SARS-CoV-2 | true |
| CCN(CC)CCNC(=O)c1cc(Br)c(N)cc1OC [bromopride] (10 µM) | Vero E6 infected with SARS-CoV-2 | false |
| CC(C)(C(=O)O)c1ccc(C(O)CCCN2CCC(C(O)(c3ccccc3)c3ccccc3)CC2)cc1 (centres undefined) [fexofenadine] (10 µM) | Vero E6 infected with SARS-CoV-2 | false |
| CONC(=N)c1ccc(-c2ccc(-c3ccc(C(=N)NOC)cc3)o2)cc1 [pafuramidine] (10 µM) | Vero E6 infected with SARS-CoV-2 | true |
